# reported MIC; entries follow
test system: Escherichia coli; experiment: Antibacterial activity against Escherichia coli 14-2 after 18 to 24 hrs; type: functional
Readout Name: MIC (µg/mL)

>>> test_result("CO/N=C1\\CN(c2nc3c(cc2F)c(=O)c(C(=O)O)cn3[C@@H]2C[C@@H]2F)CC1N (some centres not stated)")
128
>>> test_result("CO/N=C1\\CN(c2nc3c(cc2F)c(=O)c(C(=O)O)cn3[C@@H]2C[C@@H]2F)CC1(C)CN (some centres not stated)")
32
>>> test_result("NCC1CN(c2nc3c(cc2F)c(=O)c(C(=O)O)cn3[C@@H]2C[C@@H]2F)C/C1=N\\OCc1ccc(F)cc1 (some centres not stated)")
64
>>> test_result("NCC1CN(c2nc3c(cc2F)c(=O)c(C(=O)O)cn3[C@@H]2C[C@@H]2F)C/C1=N\\OCc1ccc([N+](=O)[O-])cc1 (some centres not stated)")
128
>>> test_result("NCC1CN(c2nc3c(cc2F)c(=O)c(C(=O)O)cn3[C@@H]2C[C@@H]2F)C/C1=N\\OCc1ccc2c(c1)OCO2 (some centres not stated)")
32

###

test system: Escherichia coli; test: Antibacterial activity against Escherichia coli ATCC 25922 after 18 to 24 hrs; assay type: functional
Below: a set of entries, each annotated with reported MIC.
Readout Name: MIC

>>> test_result("NCC1CN(c2nc3c(cc2F)c(=O)c(C(=O)O)cn3[C@@H]2C[C@@H]2F)C/C1=N\\OCc1ccc(OC(F)(F)F)cc1 (stereo partly drawn)")
"2 µg/mL"
>>> test_result("NCC1CN(c2nc3c(cc2F)c(=O)c(C(=O)O)cn3[C@@H]2C[C@@H]2F)C/C1=N\\OCc1ccc(F)cc1 (stereo partly drawn)")
"< 0.008 µg/mL"
>>> test_result("COc1cc(CO/N=C2\\CN(c3nc4c(cc3F)c(=O)c(C(=O)O)cn4[C@@H]3C[C@@H]3F)CC2CN)cc(OC)c1 (stereo partly drawn)")
"2 µg/mL"

###

tested on: Staphylococcus epidermidis; test: Antibacterial activity against methicillin-sensitive Staphylococcus epidermidis 14-2 after 18 to 24 hrs; type: functional
Readout Name: MIC (µg/mL)

>>> test_result("NCC1CN(c2nc3c(cc2F)c(=O)c(C(=O)O)cn3[C@@H]2C[C@@H]2F)C/C1=N\\OCc1ccc(OC(F)(F)F)cc1 (stereo partly specified)")
16
>>> test_result("NCC1CN(c2nc3c(cc2F)c(=O)c(C(=O)O)cn3[C@@H]2C[C@@H]2F)C/C1=N\\OCc1ccc(F)cc1 (stereo partly specified)")
64
>>> test_result("NC1CN(c2nc3c(cc2F)c(=O)c(C(=O)O)cn3[C@@H]2C[C@@H]2F)C/C1=N\\OCc1ccccc1 (stereo partly specified)")
64
>>> test_result("NCC1CN(c2nc3c(cc2F)c(=O)c(C(=O)O)cn3[C@@H]2C[C@@H]2F)C/C1=N\\OCc1ccc(Br)cc1 (stereo partly specified)")
16

###

# MIC annotations
test system: Klebsiella pneumoniae; assay: Antibacterial activity against ESBL-positive Klebsiella pneumoniae 14-18 after 18 to 24 hrs; type: functional
Readout Name: MIC (µg/mL)

>>> test_result("CO/N=C1\\CN(c2nc3c(cc2F)c(=O)c(C(=O)O)cn3[C@@H]2C[C@@H]2F)CC1(C)CN (stereo partly specified)")
4
>>> test_result("NCC1CN(c2nc3c(cc2F)c(=O)c(C(=O)O)cn3[C@@H]2C[C@@H]2F)C/C1=N\\OCc1ccc(F)cc1 (stereo partly specified)")
16
>>> test_result("COc1cc(CO/N=C2\\CN(c3nc4c(cc3F)c(=O)c(C(=O)O)cn4[C@@H]3C[C@@H]3F)CC2CN)cc(OC)c1 (stereo partly specified)")
16
>>> test_result("COc1ccc(CO/N=C2\\CN(c3nc4c(cc3F)c(=O)c(C(=O)O)cn4[C@@H]3C[C@@H]3F)CC2CN)cc1 (stereo partly specified)")
8
>>> test_result("CC1(CN)CN(c2nc3c(cc2F)c(=O)c(C(=O)O)cn3[C@@H]2C[C@@H]2F)C/C1=N\\OCc1ccccc1 (stereo partly specified)")
32
>>> test_result("NCC1CN(c2nc3c(cc2F)c(=O)c(C(=O)O)cn3[C@@H]2C[C@@H]2F)C/C1=N\\OCc1ccc(Br)cc1 (stereo partly specified)")
8
>>> test_result("Cc1ccc(CO/N=C2\\CN(c3nc4c(cc3F)c(=O)c(C(=O)O)cn4[C@@H]3C[C@@H]3F)CC2CN)cc1 (stereo partly specified)")
8
>>> test_result("CCO/N=C1\\CN(c2nc3c(cc2F)c(=O)c(C(=O)O)cn3[C@@H]2C[C@@H]2F)CC1(C)N (stereo partly specified)")
32
>>> test_result("NC1CN(c2nc3c(cc2F)c(=O)c(C(=O)O)cn3[C@@H]2C[C@@H]2F)C/C1=N\\OCc1ccccc1 (stereo partly specified)")
32
>>> test_result("NCC1CN(c2nc3c(cc2F)c(=O)c(C(=O)O)cn3[C@@H]2C[C@@H]2F)C/C1=N\\OCc1ccc([N+](=O)[O-])cc1 (stereo partly specified)")
16
>>> test_result("CO/N=C1\\CN(c2nc3c(cc2F)c(=O)c(C(=O)O)cn3[C@@H]2C[C@@H]2F)CC1N (stereo partly specified)")
8
>>> test_result("NCC1CN(c2nc3c(cc2F)c(=O)c(C(=O)O)cn3[C@@H]2C[C@@H]2F)C/C1=N\\OCc1ccc2c(c1)OCO2 (stereo partly specified)")
4
>>> test_result("COc1cccc(CO/N=C2\\CN(c3nc4c(cc3F)c(=O)c(C(=O)O)cn4[C@@H]3C[C@@H]3F)CC2CN)c1OC (stereo partly specified)")
16
>>> test_result("CCO/N=C1\\CN(c2nc3c(cc2F)c(=O)c(C(=O)O)cn3[C@@H]2C[C@@H]2F)CC1(C)CN (stereo partly specified)")
4
>>> test_result("CC1(N)CN(c2nc3c(cc2F)c(=O)c(C(=O)O)cn3[C@@H]2C[C@@H]2F)C/C1=N\\OCc1ccccc1 (stereo partly specified)")
128
>>> test_result("NCC1CN(c2nc3c(cc2F)c(=O)c(C(=O)O)cn3[C@@H]2C[C@@H]2F)C/C1=N\\OCc1ccc(OC(F)(F)F)cc1 (stereo partly specified)")
32
